// provenance: PubChem BioAssay (NCI)

# Tested on: NCI/ADR-RES ovarian
# ASSAY NOTES: NCI-60 one-dose screen, 48 h (100 = growth as untreated, 0 = no growth, -100 = all killed)
# MEASUREMENT PARAMETERS: 10 µM
About 83,000 compounds went through this panel and 20% of them were active in at least one assay; those are over-represented in the sample as a whole.
Class met: growth at least 40%. Class not met: growth below 40%.

Nc1c(C(=O)Nc2ccccc2Cl)sc2nc3c(cc12)C(=O)CCC3 | met
CCCC1(CC(=O)O)OCCc2c1[nH]c1ccccc21 (stereo not given) | met
Nc1nc(-c2ccccc2Cl)cc(-c2ccc(Cl)cc2Cl)n1 | met
COc1ccc(-c2nc3sc(-c4ccc(OC)cc4)c(-c4ccc(OC)cc4)n3c2/C=C/c2ccc(C(C)C)cc2)cc1 | met
CCN(CC)CCCOCCCNc1cc(OC)cc2cccnc12 | met
Nc1ncn(C2OC(CO)C(O)C2O)c(=O)n1 (stereo not given) | not met
O=C1OCC2=C1C(c1cccc(Cl)c1)c1cc3c(cc1N2CCO)OCCO3 (stereo not given) | not met
Cc1cc(N(CCCNc2ccnc3cc(Cl)ccc23)Cc2cccs2)nc(Cl)n1 | not met

Is reported growth greater than or equal to 40% here: "CN1CC[C@@H](c2c(O)cc(O)c3c(=O)cc(-c4ccccc4Cl)oc23)[C@@H](O)C1"
not met

"COc1cc(Cl)cc(-c2nn(-c3cccc(NC(=O)c4ccc(N5CCOCC5)c(C(F)(F)F)c4)c3)cc2-c2ccncc2)c1" , same question.
met

###

# Test system: M14 melanoma
# ASSAY NOTES: NCI-60 one-dose screen, 48 h (100 = growth as untreated, 0 = no growth, -100 = all killed)
# MEASUREMENT PARAMETERS: 10 µM
About 83,000 compounds went through this panel and 20% of them were active in at least one assay; those are over-represented in the sample as a whole.
Known growth of a selection of molecules
Express the result in % but write the number alone.

N#Cc1cc(-c2cc3ccccc3o2)oc1N | 26.4
O=C(CNC(=O)OCc1ccccc1)NCC(=O)Oc1ccc([N+](=O)[O-])cc1 | 89.5

growth for "Cc1ccc(Nc2cc(C)nc(NCCCNc3ccnc4cc(Cl)ccc34)n2)cc1" ?
-86

###

# Test system: DU-145 prostate
# ASSAY NOTES: NCI-60 one-dose screen, 48 h (100 = growth as untreated, 0 = no growth, -100 = all killed)
# MEASUREMENT PARAMETERS: 10 µM
Compounds without any hit were thinned out: in the full panel of roughly 83,000, 20% have a hit.
So basically: is growth under 80%? Then condition met. Not under? Then condition not met.

Would you please look over these solved cases?
O=C(O)CCCCSc1ncnc2nc[nH]c12 | condition not met
O=S(=O)(NCCCNc1nccc(-c2c(-c3ccc(F)cc3)nc3sccn23)n1)c1ccc2ccccc2c1 | condition met
Nc1nccc(Nc2ccccc2)n1 | condition not met
Cc1ccc(NC(=O)Nc2nc3ccccc3s2)cc1NC(=O)Nc1nc2ccccc2s1 | condition not met
O=C1N=NC2=C1c1c3ccccc3c(O)n1CC2 | condition not met
O=C1/C(=C\c2ccc(Cl)cc2)CN(C(=S)Nc2ccccc2)C/C1=C\c1ccc(Cl)cc1 | condition met
O=[N+]([O-])c1ccc(Oc2cc(Cl)c(Cl)cc2Cl)c(C(F)(F)F)c1 | condition not met
CC/C(=C(/c1ccc(OCCN(C)C)cc1)c1ccc(OC(=O)CCC(=O)c2c(C)[nH]c(/C=C3\N=C(c4ccc[nH]4)C=C3OC)c2C)cc1)c1ccccc1 | condition met

Consider now this further compound.
Problem: For the compound "C=C(Cl)[C@@](Cl)(CBr)CC[C@@H](Br)C(C)(C)Cl" , is growth under 80%?
condition met

###

# Test system: MALME-3M melanoma
# ASSAY NOTES: NCI-60 one-dose screen, 48 h (100 = growth as untreated, 0 = no growth, -100 = all killed)
# MEASUREMENT PARAMETERS: 10 µM
The panel holds about 83,000 compounds, 20% with a hit somewhere; the sample as a whole holds those more often.
Define the label as criterion met when growth is strictly less than 70% and as criterion not met in all remaining cases.

Is growth strictly under 70% for the entry "Clc1ccc(Sc2nc(NC3CC3)nc(Sc3ccc(Cl)cc3)n2)cc1" ?
criterion not met

Thanks! And "Nc1c(C(=O)Nc2cccc3ccccc23)sc2nc3c(cc12)C(=O)CCC3" ?
criterion met

Quick one: "COc1ccc(-c2nn(-c3cccc(NC(=O)c4cc(C(F)(F)F)cc(C(F)(F)F)c4)c3)cc2-c2ccncc2)cc1Cl"
criterion met

Repeat with CCOCC(=O)C(C#N)c1ccc(Cl)c(Cl)c1 (stereo unspecified)
criterion not met

One more molecule: O=C(NN1C(=O)CSC1c1ccc(Cl)cc1)c1cccnc1 (stereo unspecified)
criterion not met

And CCCCCCCCCCCCCCCCCCOCC(COCCOCC[N+]1(CCCCCC(=O)[O-])CCCC1)Oc1ncccn1 (stereo unspecified) ?
criterion not met

Likewise for "CCCCOc1ccc(NC(=O)Nc2nnc(C)s2)cc1" ?
criterion not met

Follow-up entry: "COc1cc(Cc2cc(-c3ccc(Cl)cc3)n[nH]c2=O)ccc1O"
criterion not met

Now try "Cc1ccc(C(=O)N2C/C(=C/c3ccccc3)C(=O)/C(=C/c3ccccc3)C2)cc1" .
criterion met

###

Reported growth by item:
# Tested on: NCI-H522 lung
# ASSAY NOTES: NCI-60 one-dose screen, 48 h (100 = growth as untreated, 0 = no growth, -100 = all killed)
# MEASUREMENT PARAMETERS: 10 µM
About 83,000 compounds went through this panel and 20% of them were active in at least one assay; those are over-represented in the sample as a whole.
The answer is to be given in %; state only the numeric part.

Any idea what its growth is? The molecule is "COc1ccc(Nc2cc(C)nc(NCCCNc3ccnc4cc(Cl)ccc34)n2)cc1"
-74

Try "CC/C(=C(/c1ccc(OCCN(C)C)cc1)c1ccc(OC(=O)CCCCC(=O)c2c(C)[nH]c(/C=C3\N=C(c4ccc[nH]4)C=C3OC)c2C)cc1)c1ccccc1" next.
4.55

// same read-out, input: "CN(C)CCS(=O)(=O)CCN(C)C"
117

###

# System: A498 renal
# ASSAY NOTES: NCI-60 one-dose screen, 48 h (100 = growth as untreated, 0 = no growth, -100 = all killed)
# MEASUREMENT PARAMETERS: 10 µM
This is part of a sample that, as a whole, favours compounds with a hit. Of some 83,000 tested, about 20% had one in any assay.
Examples of compounds with documented growth follow.
Numeric only. Scale: %

# query: growth of entry "COc1ccc(-c2nc3ncccn3c2-c2nnc(-c3ccc(F)cc3)o2)cc1"
81

Similarly, CC[C@H](C)C(=O)O[C@H]1CCC=C2C=C[C@H](C)C(CCC3C[C@@H](O)CC(=O)O3)[C@H]21 (stereo not given in full) ?
-33.8

Further, for CCCN(CCC)CCC(O)c1cc2c(c3ccccc13)CCCC2 (stereo not given) ?
74.4

Thanks! And Clc1ccc(/C=C2\CCCC3=C2N=C2SC=NN2C3c2ccc(Cl)cc2)cc1 (stereo not given) ?
81.7

One more compound: "Oc1[nH]c2ccc(Cl)cc2c1/C=c1/ccc2c(c1)N=C(c1cccs1)N=2"
44.6

What about "O=c1c2ccccc2nc(SCCN2CCCCC2)n1CCc1ccccc1" ?
83.1

Here is the next compound: "COc1ccc(-c2nc(-c3nc4ccc(OC)cc4[nH]3)cc3c2[nH]c2ccccc23)cc1"
46.3

Now try "CCCCN(CCCC)c1cc(C(=O)CCCCCN)c2ccccc2n1" .
72.6

Okay, and "N=C1c2nc3n(c2C(=O)c2nc4n(c21)CCCC4)CCCC3" ?
52.1

Same again, this time with "Cc1cc(N(CCCNc2ccnc3cc(Cl)ccc23)Cc2cccs2)nc(Cl)n1"
28.5

###

# Test system: EKVX NSCLC
# ASSAY NOTES: NCI-60 one-dose screen, 48 h
# MEASUREMENT PARAMETERS: 10 µM
This is part of a sample that, as a whole, favours compounds with a hit. Of some 83,000 tested, about 20% had one in any assay. The source made the active and inactive calls. How the source made its calls: active means growth percent below 10; inactive means the rest.
Hi! Could you answer with just one of these? active, inactive

Take a look at these entries with their results.
NC1(C(=O)O)CSSC1 | inactive
CCN(CC)CCOc1nc2cc(OC)c(OC)cc2c2c1-c1ccc(OC)cc1C2=O | inactive
COc1cccc(-c2cc(-c3cccc(NS(C)(=O)=O)c3)nc(N)c2C#N)c1O | inactive

Please share the test call associated with "CCN(CCCCCCN1CC(=O)N(CCCCCCN(CC)Cc2ccccc2OC)CC1=O)Cc1ccccc1OC" .
inactive

Follow-up entry: OCC1OC(n2cnc3c(N/N=C\c4ccccn4)ncnc32)C(O)C1O (stereo not given)
active

Okay, and "O=C(O)c1ccc(Cl)cc1Nc1ccc(F)cc1" ?
inactive

CC1(O)CCC2CC3OC3(C)CCC3OC3(C)CCC1C2(C)C (stereo not given) , same question.
inactive

Could you do the same for "COc1ccc2c(c1)sc1nc(-c3ccccc3)c(-c3ccsc3)n12" , please?
inactive

Moving on to the next compound: "COc1ccc2c(c1)nc(N)c1c3cccnc3cn21"
inactive

Could you do the same for "O=C(N/N=C\c1cc(Cl)ccc1[N+](=O)[O-])c1ccco1" , please?
inactive

What about "O=C(Nc1nc2ccccc2s1)Nc1ccc([N+](=O)[O-])cc1Cl" ?
inactive

Next entry: "c1ccc([C@H]2CN3CCSC3=N2)cc1"
inactive

Another: "O=c1c2ccccc2nc(SCCN2CCCCC2)n1CCc1ccccc1"
inactive

Another compound: "O=c1[nH]c2ccc(Cl)cc2c2ccccc12"
inactive

Next compound: O=C(O)C(SC(C(=O)O)c1ccccc1)c1ccccc1 (stereo not given)
inactive

Do the same for O=C(NN1C(=O)CSC1c1ccc(Cl)cc1)c1cccnc1 (stereo not given) please
inactive

Would you mind doing COc1ccc2nc3cc(Cl)ccc3c(NCCNCC(C)O)c2c1 (stereo not given) as well?
inactive

Try "O=C(Nc1nc(-c2ccccc2Cl)cs1)c1cc(-c2ccc(Cl)cc2)nc2ccc(Cl)cc12" next.
inactive

Again, but for "COc1ccc(/C=C/C(=O)Nc2ccc(-c3nc4ccc(OC)cc4s3)cc2)cc1"
inactive
